Target: HERG (Homo sapiens, UniProt Q12809)
Sequence (Q12809 whole entry): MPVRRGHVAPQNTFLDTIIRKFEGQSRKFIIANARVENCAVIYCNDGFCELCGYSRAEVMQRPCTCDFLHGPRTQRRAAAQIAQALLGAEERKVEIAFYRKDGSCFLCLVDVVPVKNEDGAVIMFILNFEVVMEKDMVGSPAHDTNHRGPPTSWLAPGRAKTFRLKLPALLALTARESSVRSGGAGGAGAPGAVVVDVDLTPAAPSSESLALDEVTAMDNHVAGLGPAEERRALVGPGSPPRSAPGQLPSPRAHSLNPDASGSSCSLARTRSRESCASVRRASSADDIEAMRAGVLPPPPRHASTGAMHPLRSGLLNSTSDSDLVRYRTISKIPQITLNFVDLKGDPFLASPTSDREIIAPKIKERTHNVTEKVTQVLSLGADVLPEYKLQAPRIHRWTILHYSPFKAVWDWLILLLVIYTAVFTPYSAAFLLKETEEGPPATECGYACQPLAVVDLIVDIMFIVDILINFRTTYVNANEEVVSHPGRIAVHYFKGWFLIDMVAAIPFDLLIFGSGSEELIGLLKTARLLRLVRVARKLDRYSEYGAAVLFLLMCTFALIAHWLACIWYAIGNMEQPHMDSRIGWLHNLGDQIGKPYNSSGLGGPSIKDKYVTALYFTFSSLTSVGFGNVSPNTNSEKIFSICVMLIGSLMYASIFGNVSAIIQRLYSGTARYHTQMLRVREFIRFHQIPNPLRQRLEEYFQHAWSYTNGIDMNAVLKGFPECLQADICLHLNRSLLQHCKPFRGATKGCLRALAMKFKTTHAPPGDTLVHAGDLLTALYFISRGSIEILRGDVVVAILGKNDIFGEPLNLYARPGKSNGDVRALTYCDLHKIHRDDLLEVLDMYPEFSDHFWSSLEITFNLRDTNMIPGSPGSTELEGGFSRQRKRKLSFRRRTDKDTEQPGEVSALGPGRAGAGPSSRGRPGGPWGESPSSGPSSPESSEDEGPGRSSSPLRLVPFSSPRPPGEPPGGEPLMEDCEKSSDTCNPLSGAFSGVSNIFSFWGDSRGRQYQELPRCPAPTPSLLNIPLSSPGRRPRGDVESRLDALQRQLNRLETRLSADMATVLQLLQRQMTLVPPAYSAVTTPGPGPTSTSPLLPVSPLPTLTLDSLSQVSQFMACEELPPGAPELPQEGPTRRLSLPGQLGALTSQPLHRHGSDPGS
Test: HERG Patch Clamp EP (whole cell patch clamp, tail currents; single point at 10 μM and IC50)
Details: concentration response
From the text: The external solution is standard Tyrodes solution.
pIC50: −log10 of the molar value.
Decision: pIC50 >= 5 yields Y, all other cases yield N.

Enquiry: # bool: pIC50 of COc1ccc(CCN2C(=O)C3(CCN(C(=O)NC4CCCC4)CC3)N(C)C2c2ccc(C3CC3)cc2)cc1 (centres unmarked) >= 5
Return: Y

Enquiry: Same for COc1ccc(CCN2C(=O)C3(CCN(C(N)=O)CC3)N(C)C2Cc2ccc(C(C)(C)C)cc2)cc1 (centres unmarked)
Return: Y

Enquiry: Same for CN1C(c2ccc(C3CC3)cc2)N(CCCc2ccccc2)C(=O)C12CCN(C(=O)C1CC1)CC2 (centres unmarked)
Return: Y

Enquiry: Same for COc1ccc(CCN2C(=O)C3(CCN(C(=O)OC(C)(C)C)CC3)NC2c2ccc(OC(F)F)cc2)cc1 (centres unmarked)
Return: Y

Enquiry: Same for "COc1ccc(CCN2C(=O)C3(CCN(C(N)=O)CC3)N(C)[C@H]2c2ccc(C3CC3)cc2)cc1"
Return: N

Enquiry: Same for COc1ccc(CCN2C(=O)C3(CCN(C(C)=O)CC3)N(C)C2c2ccc(C3CC3)cc2)cc1 (centres unmarked)
Return: N

Enquiry: Same for COc1ccc(CCN2C(=O)C3(CCN(C(N)=O)CC3)N(C)C2c2ccc(C3CC3)cc2)cc1 (centres unmarked)
Return: N

Enquiry: Same for COc1ccc(CCN2C(=O)C3(CCN(C(N)=NC#N)CC3)N(C)C2c2ccc(OC)cc2)cc1 (centres unmarked)
Return: Y

Enquiry: Same for COc1ccc(CCN2C(=O)C3(CCN(C(=O)N4CCCC4)CC3)N(C)C2c2ccc(C3CC3)cc2)cc1 (centres unmarked)
Return: Y

Enquiry: Same for CN1C(c2ccc(C3CC3)cc2)N(CCCc2ccccc2)C(=O)C12CCN(S(C)(=O)=O)CC2 (centres unmarked)
Return: Y

###

Answer each item with its documented inhibition at 10 µM.
target: HERG (Homo sapiens, UniProt Q12809); construct: expressed in transfected cells; host or cells: HEK cells; test: HERG Patch Clamp EP (whole cell patch clamp, tail currents; single point at 10 μM and IC50); type: cell-based; conditions: human, HEK cells stably overexpressing HERG, single point at 10 μM, HERG in HEK cells, read-out: HERG % Inhib. @ 10 μM
A bare number is not enough; add the unit after it.

Enquiry: Reported inhibition at 10 µM for HERG (Homo sapiens, UniProt Q12809), given COc1ccc(CCN2C(=O)C3(CCN(C(C)=O)CC3)N(C)C2c2ccc(C3CC3)cc2)cc1 (stereo not shown) ?
Return: 8%

Enquiry: Same for CCONC(=O)N1CCC2(CC1)C(=O)N(CCc1ccc(OC)cc1)C(c1ccc(C3CC3)cc1)N2C (stereo not shown)
Return: 35%

Enquiry: Same for COc1ccc(CCN2C(=O)C3(CCN(C(N)=NC#N)CC3)N(C)C2c2ccc(OC)cc2)cc1 (stereo not shown)
Return: 91%

Enquiry: Same for COc1ccc(CCN2C(=O)C3(CCN(C(=O)NNC(=O)OC(C)(C)C)CC3)N(C)C2c2ccc(C3CC3)cc2)cc1 (stereo not shown)
Return: 31%

###

target: Kv1.5 (Homo sapiens); construct: expressed in transfected cells; host or cells: HEK or LTK- cells; test: Kv1.5 Patch Clamp EP (whole cell patch clamp; single point at 1 μM and IC50); type: cell-based; conditions: single point at 1.0 μM, Kv1.5 stably over expressed in HEK or LTK- cells
Answer each item with its documented inhibition at 1 µM.
// note: answer is a bare numeric in %

Enquiry: Recorded inhibition at 1 µM for COc1ccc(CCN2C(=O)C3(CCN(C(=O)C4CC4)CC3)N(C)C2c2ccc(OC(F)F)cc2)cc1 (centres unmarked) [Compound 6] , please?
Return: 68

Enquiry: Same for CNC(=O)N1CCC2(CC1)C(=O)N(CCCc1ccccc1)C(c1ccc(C3CC3)cc1)N2C (centres unmarked) [Compound 51]
Return: 73

Enquiry: Same for CN1C(c2ccc(C3CC3)cc2)N(CCCc2ccccc2)C(=O)C12CCN(S(C)(=O)=O)CC2 (centres unmarked) [Compound 54]
Return: 88

Enquiry: Same for COc1ccc(CCN2C(=O)C3(CCN(C(=O)NC(C)C)CC3)N(C)C2c2ccc(OC)cc2)cc1 (centres unmarked) [Compound 17]
Return: 31

Enquiry: Same for COc1ccc(CCN2C(=O)C3(CCN(C(=O)C4CC4)CC3)NC2c2ccc(C(C)(C)C)cc2)cc1 (centres unmarked) [Compound 88]
Return: 13

Enquiry: Same for COc1ccc(CCN2C(=O)C3(CCN(C(N)=NC#N)CC3)N(C)C2c2ccc(OC)cc2)cc1 (centres unmarked) [Compound 30]
Return: 93

Enquiry: Same for COc1ccc(CCN2C(=O)C3(CCN(CC(N)=O)CC3)N(C)C2c2ccc(C3CC3)cc2)cc1 (centres unmarked) [Compound 55]
Return: 64

Enquiry: Same for COc1ccc(CCN2C(=O)C3(CCNCC3)N(C)C2c2ccc(C(C)(C)C)cc2)cc1 (centres unmarked) [Compound 2]
Return: 6

Enquiry: Same for COc1ccc(CCN2C(=O)C3(CCN(C(=O)C4CC4)CC3)N(C)C2c2ccc(C3CC3)cc2)cc1 (centres unmarked) [Compound 4]
Return: 94

Enquiry: Same for COc1ccc(CCN2C(=O)C3(CCN(S(C)(=O)=O)CC3)N(C(=O)C(F)(F)F)C2c2ccc(C3CC3)cc2)cc1 (centres unmarked) [Compound 92]
Return: 81

Enquiry: Same for COc1ccc(CCN2C(=O)C3(CCN(C(N)=O)CC3)N(C)C2c2ccc(C(C)(C)C)cc2)cc1 (centres unmarked) [Compound 12]
Return: 70

###

target: Kv1.5 (Homo sapiens, UniProt P22460); construct: expressed in transfected cells; host or cells: HEK or LTK- cells; assay: Kv1.5 Patch Clamp EP (whole cell patch clamp; single point at 1 μM and IC50); format: cell-based; conditions: single point at 1.0 μM, Kv1.5 stably over expressed in HEK or LTK- cells
Sequence (P22460 whole entry): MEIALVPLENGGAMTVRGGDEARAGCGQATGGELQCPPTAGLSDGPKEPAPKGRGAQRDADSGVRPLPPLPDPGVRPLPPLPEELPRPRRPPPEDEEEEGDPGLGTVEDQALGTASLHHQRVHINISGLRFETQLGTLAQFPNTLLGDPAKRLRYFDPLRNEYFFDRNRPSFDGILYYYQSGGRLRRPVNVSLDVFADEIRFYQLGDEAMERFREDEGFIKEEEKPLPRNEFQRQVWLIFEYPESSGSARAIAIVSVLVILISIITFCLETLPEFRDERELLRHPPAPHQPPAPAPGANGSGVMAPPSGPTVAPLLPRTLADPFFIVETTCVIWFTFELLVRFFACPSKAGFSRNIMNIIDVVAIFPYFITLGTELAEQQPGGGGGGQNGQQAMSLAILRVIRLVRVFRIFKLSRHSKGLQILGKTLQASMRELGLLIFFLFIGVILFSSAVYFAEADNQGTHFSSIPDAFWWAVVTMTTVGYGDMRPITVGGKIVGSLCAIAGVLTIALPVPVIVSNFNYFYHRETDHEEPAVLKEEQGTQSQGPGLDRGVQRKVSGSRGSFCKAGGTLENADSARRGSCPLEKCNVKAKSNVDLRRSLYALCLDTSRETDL
Answer each item with its documented inhibition at 1 µM.
// note: answer is a bare numeric in %

Enquiry: Reported inhibition at 1 µM for Kv1.5 (Homo sapiens, UniProt P22460), given COc1ccc(CCN2C(=O)C3(CCN(S(C)(=O)=O)CC3)NC2c2ccc(C(C)(C)C)cc2)cc1 (stereo not drawn) [Compound 63] ?
Return: 73

Enquiry: Same for COc1ccc(CCN2C(=O)C3(CCN(C(=O)OC(C)(C)C)CC3)NC2c2ccc(OC(F)F)cc2)cc1 (stereo not drawn) [Compound 62]
Return: 93

Enquiry: Same for COc1ccc(CCN2C(=O)C3(CCN(C(=O)OC(C)(C)C)CC3)N(C)C2Cc2ccc(C(C)(C)C)cc2)cc1 (stereo not drawn) [Compound 97]
Return: 16

Enquiry: Same for COc1ccc(CCN2C(=O)C3(CCN(C(=O)NC4CCCC4)CC3)N(C)C2c2ccc(C3CC3)cc2)cc1 (stereo not drawn) [Compound 20]
Return: 93

Enquiry: Same for COc1ccc(CCN2C(=O)C3(CCN(C(=O)C4CCCC4)CC3)N(C)C2c2ccc(OC(F)F)cc2)cc1 (stereo not drawn) [Compound 82]
Return: 88

Enquiry: Same for COc1ccc(CCN2C(=O)C3(CCN(C(=O)N4CCCC4)CC3)N(C)C2c2ccc(C3CC3)cc2)cc1 (stereo not drawn) [Compound 23]
Return: 96

Enquiry: Same for COc1ccc(CCN2C(=O)C3(CCN(C(=O)OC(C)(C)C)CC3)N(C)C2c2ccc(CC(C)C)cc2)cc1 (stereo not drawn) [Compound 85]
Return: 85

Enquiry: Same for COc1ccc(CCN2C(=O)C3(CCN(C(=O)[C@H]4CCCN4)CC3)N(C)C2c2ccc(C3CC3)cc2)cc1 (stereo partly drawn) [Compound 90]
Return: 8

Enquiry: Same for COc1ccc(CCN2C(=O)C3(CCN(S(C)(=O)=O)CC3)N(C)C2c2ccc(C(C)(C)C)cc2)cc1 (stereo not drawn) [Compound 33]
Return: 80

Enquiry: Same for CN1C(c2ccc(C(C)(C)C)cc2)N(CCCc2ccccc2)C(=O)C12CCN(C(N)=O)CC2 (stereo not drawn) [Compound 50]
Return: 72

Enquiry: Same for COc1ccc(C2N(CCCc3ccccc3)C(=O)C3(CCN(C(=O)C4CC4)CC3)N2C)cc1 (stereo not drawn) [Compound 46]
Return: 68

Enquiry: Same for CN=C(N)N1CCC2(CC1)C(=O)N(CCc1ccc(OC)cc1)C(c1ccc(C3CC3)cc1)N2C (stereo not drawn) [Compound 86]
Return: 4

Enquiry: Same for CN(C)C(=O)N1CCC2(CC1)C(=O)N(CCCc1ccccc1)C(c1ccc(C3CC3)cc1)N2C (stereo not drawn) [Compound 53]
Return: 93

Enquiry: Same for CNC(=O)N1CCC2(CC1)C(=O)N(CCc1ccc(OC)cc1)C(c1ccc(C3CC3)cc1)N2C (stereo not drawn) [Compound 8]
Return: 91

Enquiry: Same for COc1ccc(CCN2C(=O)C3(CCN(C(=O)N4CCC4)CC3)N(C)C2c2ccc(C3CC3)cc2)cc1 (stereo not drawn) [Compound 21]
Return: 97

Enquiry: Same for COc1ccc(CCN2C(=O)C3(CCN(C(=N)N)CC3)N(C)C2c2ccc(C3CC3)cc2)cc1 (stereo not drawn) [Compound 84]
Return: 7

Enquiry: Same for COc1ccc(CCN2C(=O)C3(CCN(CC(=O)N(C)C)CC3)N(C)C2c2ccc(C3CC3)cc2)cc1 (stereo not drawn) [Compound 89]
Return: 94

Enquiry: Same for COc1ccc(CCN2C(=O)C3(CCN(C(N)=O)CC3)N(C)C2Cc2ccc(C(C)(C)C)cc2)cc1 (stereo not drawn) [Compound 58]
Return: 92

Enquiry: Same for COc1ccc(CCN2C(=O)C3(CCN(CC4CC4)CC3)N(C)C2c2ccc(C3CC3)cc2)cc1 (stereo not drawn) [Compound 56]
Return: 12

Enquiry: Same for COc1ccc(CCN2C(=O)C3(CCN(C(=O)OC(C)(C)C)CC3)N(C)C2c2ccc(C(C)(C)C)cc2)cc1 (stereo not drawn) [Compound 38]
Return: 28

Enquiry: Same for COc1ccc(CCN2C(=O)C3(CCN(C(=O)OC(C)(C)C)CC3)N(C)C2c2ccc(C3CC3)cc2)cc1 (stereo not drawn) [Compound 65]
Return: 80

Enquiry: Same for COc1ccc(CCN2C(=O)C3(CCN(C(=O)OC(C)(C)C)CC3)N(C)C2c2ccc(OC)cc2)cc1 (stereo not drawn) [Compound 37]
Return: 83

Enquiry: Same for CN1C(c2ccc(C3CC3)cc2)N(CCc2ccc(OC(F)(F)F)cc2)C(=O)C12CCNCC2 (stereo not drawn) [Compound 78]
Return: 16

Enquiry: Same for COc1ccc(CCN2C(=O)C3(CCN(C(N)=O)CC3)N(C)C2c2ccc(OC(F)F)cc2)cc1 (stereo not drawn) [Compound 13]
Return: 46

Enquiry: Same for COc1ccc(CCN2C(=O)C3(CCN(C(N)=O)CC3)N(C)[C@H]2c2ccc(C3CC3)cc2)cc1 [Compound 99]
Return: 80

Enquiry: Same for COc1ccc(CCN2C(=O)C3(CCN(S(C)(=O)=O)CC3)NC2c2ccc(C3CC3)cc2)cc1 (stereo not drawn) [Compound 79]
Return: 8

Enquiry: Same for COc1ccc(CCN2C(=O)C3(CCN(C(=O)OC(C)(C)C)CC3)NC2c2ccc(OC)cc2)cc1 (stereo not drawn) [Compound 73]
Return: 11

Enquiry: Same for COc1ccc(CCN2C(=O)C3(CCN(C(N)=NC#N)CC3)N(C)C2c2ccc(C3CC3)cc2)cc1 (stereo not drawn) [Compound 31]
Return: 75

Enquiry: Same for COc1ccc(CCN2C(=O)C3(CCNCC3)NC2c2ccc(C(C)(C)C)cc2)cc1 (stereo not drawn) [Compound 76]
Return: 5

Enquiry: Same for COc1ccc(CCN2C(=O)C3(CCN(C(=O)c4ccno4)CC3)N(C)C2c2ccc(C3CC3)cc2)cc1 (stereo not drawn) [Compound 42]
Return: 94
